biological target: recombinant human MMP-13 (Homo sapiens); construct: made in house; host or cells: baculovirus (pBlueBac4 / Bac-N-Blue; virus made in Sf9), expressed in High-Five insect cells; culture supernatant used; assay: Assay of MMP-13 inhibiting activity (fluorogenic peptide substrate); type: biochemical; details: Table 3; 37° C., 2 hours
# if measured IC50 < 300 nM: condition met  # else: condition not met

compound: CC(=O)SC1CC(=O)N(Cc2ccc(Oc3ccccc3)cc2)C1 (stereo not drawn)
classification: condition met

compound: O=C1C[C@@H](SSc2ccccc2[N+](=O)[O-])CN1Cc1ccc(Oc2ccccc2)cc1
classification: condition not met

compound: COCS[C@@H]1CC(=O)N(Cc2ccc(Oc3ccccc3)cc2)C1
classification: condition met

compound: CN(C)C(=O)S[C@@H]1CC(=O)N(Cc2ccc(Oc3ccccc3)cc2)C1
classification: condition not met

compound: O=C(O)CS[C@@H]1CC(=O)N(Cc2ccc(Oc3ccccc3)cc2)C1
classification: condition not met

compound: NC(=O)S[C@@H]1CC(=O)N(Cc2ccc(Oc3ccccc3)cc2)C1
classification: condition met

compound: O=C(O)CCNC(=O)S[C@@H]1CC(=O)N(Cc2ccc(Oc3ccccc3)cc2)C1
classification: condition met

compound: CN1C(=O)CC(S[C@@H]2CC(=O)N(Cc3ccc(Oc4ccccc4)cc3)C2)C1=O (stereo partly drawn)
classification: condition met

---

biological target: recombinant human MMP-13 (Homo sapiens, UniProt P45452); construct: made in house; host or cells: baculovirus (pBlueBac4 / Bac-N-Blue; virus made in Sf9), expressed in High-Five insect cells; culture supernatant used; test: Assay of MMP-13 inhibiting activity (fluorogenic peptide substrate); type: biochemical; settings: Table 9; 37° C., 2 hours
pIC50: −log10 of the molar value.
Note to self: values exactly at 8 are fulfilled. So pIC50 at or above 8 is fulfilled, below is not fulfilled.

compound: CC(=O)SC1CC(=O)N(Cc2ccc(Oc3ccc([N+](=O)[O-])cc3)cc2)C1 (stereo not shown)
classification: not fulfilled
//
compound: CCOC(=O)c1ccc(Oc2ccc(CN3CC(S)CC3=O)cc2)cc1 (stereo not shown)
classification: fulfilled
//
compound: CC(=O)SC1CC(=O)N(Cc2ccc(Oc3ccccc3)c(NS(C)(=O)=O)c2)C1 (stereo not shown)
classification: not fulfilled
//
compound: O=C1CC(S)CN1Cc1ccc(Oc2ccc(F)c(F)c2)cc1 (stereo not shown)
classification: not fulfilled
//
compound: O=C1CC(S)CN1Cc1ccc(Oc2ccc(F)cc2)cc1 (stereo not shown)
classification: fulfilled
//
compound: CC(=O)SC1CC(=O)N(Cc2ccc(Oc3ccc(C(F)(F)F)cc3)cc2)C1 (stereo not shown)
classification: not fulfilled
//
compound: O=C1CC(S)CN1Cc1ccc(Oc2ccc(O)cc2)cc1 (stereo not shown)
classification: fulfilled

---

test system: nasal cartilage; assay: Assay of cartilage collagen degradation inhibiting activity (IL-1β-stimulated nasal cartilage pieces, hydroxyproline release); format: cell-based, cow; conditions: 504 h; at 1 μM of compound; human recombinant IL-1β; incubation 3 weeks
# Lookup of reported inhibition at 1 µM keyed by entry

molecule: O=C1C[C@@H](S)CN1Cc1ccc(Oc2ccccc2)cc1
inhibition at 1 µM [%]: 88
//
molecule: CC(=O)SC1CC(=O)N(Cc2ccc(Oc3ccccn3)cc2)C1 (centres unmarked)
inhibition at 1 µM [%]: 84
//
molecule: O=C1C[C@@H](S)[C@H](COCc2ccccc2)N1Cc1ccc(Oc2ccccc2)cc1 (relative stereo)
inhibition at 1 µM [%]: 39
//
molecule: O=C1C[C@@H](S)CN1Cc1ccc(Oc2ccc(Cl)cc2)cc1
inhibition at 1 µM [%]: 70
//
molecule: CC(=O)S[C@@H]1CC(=O)N(Cc2ccc(Oc3ccccc3)cc2)C1
inhibition at 1 µM [%]: 91

---

Molecular target: recombinant human MMP-13 (Homo sapiens)
Construct: made in house; host or cells: baculovirus (pBlueBac4 / Bac-N-Blue; virus made in Sf9), expressed in High-Five insect cells; culture supernatant used
Assay: Assay of MMP-13 inhibiting activity (fluorogenic peptide substrate)
Assay type: biochemical
Details: Table 3; 37° C., 2 hours
Procedure: Based on the sequence described in the literature by Freije, J. M. et al (Journal of Biological Chemistry, 269: 16766-16773, 1994) and using a PCR method known per se, a human MMP-13 cDNA was obtained. […] The level of liberated MOCAc-Pro-Leu-Gly was determined using a fluorophotometer (MTP-32/F2: CORONA DENKI) at the excitation wavelength of 330 nm and the fluorescent wavelength of 405 nm. […]
pIC50: −log10 of the molar value.
endpointName: pIC50

molecule: CCNC(=S)S[C@@H]1CC(=O)N(Cc2ccc(Oc3ccccc3)cc2)C1 [Example 77]
testedOn: recombinant human MMP-13 (Homo sapiens)
endpointName: pIC50
comparisonSign: =
result: 8.80

molecule: O=C(Nc1ccccc1)SC1CC(=O)N(Cc2ccc(Oc3ccccc3)cc2)C1 (centres unmarked) [Example 53]
testedOn: recombinant human MMP-13 (Homo sapiens)
endpointName: pIC50
comparisonSign: =
result: 9.00

molecule: O=C(O)c1ccccc1SS[C@@H]1CC(=O)N(Cc2ccc(Oc3ccccc3)cc2)C1 [Example 86]
testedOn: recombinant human MMP-13 (Homo sapiens)
endpointName: pIC50
comparisonSign: =
result: 6.30

molecule: O=C(O)CCS[C@@H]1CC(=O)N(Cc2ccc(Oc3ccccc3)cc2)C1 [Example 93]
testedOn: recombinant human MMP-13 (Homo sapiens)
endpointName: pIC50
comparisonSign: =
result: 5.22

molecule: O=C(Cc1ccc(Cl)cc1)SC1CC(=O)N(Cc2ccc(Oc3ccccc3)cc2)C1 (centres unmarked) [Example 69]
testedOn: recombinant human MMP-13 (Homo sapiens)
endpointName: pIC50
comparisonSign: =
result: 7.70

molecule: CCOC(=O)CNC(=O)S[C@@H]1CC(=O)N(Cc2ccc(Oc3ccccc3)cc2)C1 [Example 58]
testedOn: recombinant human MMP-13 (Homo sapiens)
endpointName: pIC50
comparisonSign: =
result: 9.15

molecule: CCOC(=O)NC(=O)S[C@@H]1CC(=O)N(Cc2ccc(Oc3ccccc3)cc2)C1 [Example 57]
testedOn: recombinant human MMP-13 (Homo sapiens)
endpointName: pIC50
comparisonSign: =
result: 9.09

molecule: O=C(SC1CC(=O)N(Cc2ccc(Oc3ccccc3)cc2)C1)C(c1ccccc1)c1ccccc1 (centres unmarked) [Example 70]
testedOn: recombinant human MMP-13 (Homo sapiens)
endpointName: pIC50
comparisonSign: =
result: 8.70

molecule: O=C(NC(=O)c1ccccc1)S[C@@H]1CC(=O)N(Cc2ccc(Oc3ccccc3)cc2)C1 [Example 56]
testedOn: recombinant human MMP-13 (Homo sapiens)
endpointName: pIC50
comparisonSign: =
result: 8.85

molecule: CCNC(=O)S[C@@H]1CC(=O)N(Cc2ccc(Oc3ccccc3)cc2)C1 [Example 51]
testedOn: recombinant human MMP-13 (Homo sapiens)
endpointName: pIC50
comparisonSign: =
result: 9.00

molecule: CCOC(=O)NCS[C@@H]1CC(=O)N(Cc2ccc(Oc3ccccc3)cc2)C1 [Example 103]
testedOn: recombinant human MMP-13 (Homo sapiens)
endpointName: pIC50
comparisonSign: =
result: 6.52

molecule: CNC(=O)S[C@@H]1CC(=O)N(Cc2ccc(Oc3ccccc3)cc2)C1 [Example 50]
testedOn: recombinant human MMP-13 (Homo sapiens)
endpointName: pIC50
comparisonSign: =
result: 8.52

molecule: CC(=O)NC(=O)S[C@@H]1CC(=O)N(Cc2ccc(Oc3ccccc3)cc2)C1 [Example 55]
testedOn: recombinant human MMP-13 (Homo sapiens)
endpointName: pIC50
comparisonSign: =
result: 8.89

molecule: O=C1CC(S[C@@H]2CC(=O)N(Cc3ccc(Oc4ccccc4)cc3)C2)C(=O)N1 (some centres unmarked) [Example 105]
testedOn: recombinant human MMP-13 (Homo sapiens)
endpointName: pIC50
comparisonSign: =
result: 7.40

molecule: COC(=O)SS[C@@H]1CC(=O)N(Cc2ccc(Oc3ccccc3)cc2)C1 [Example 78]
testedOn: recombinant human MMP-13 (Homo sapiens)
endpointName: pIC50
comparisonSign: <
result: 5.00

molecule: CCOC(=O)CCC(=O)S[C@@H]1CC(=O)N(Cc2ccc(Oc3ccccc3)cc2)C1 [Example 74]
testedOn: recombinant human MMP-13 (Homo sapiens)
endpointName: pIC50
comparisonSign: =
result: 8.27

molecule: CCCC(=O)S[C@@H]1CC(=O)N(Cc2ccc(Oc3ccccc3)cc2)C1 [Example 65]
testedOn: recombinant human MMP-13 (Homo sapiens)
endpointName: pIC50
comparisonSign: =
result: 8.89

---

target: recombinant human MMP-13 (Homo sapiens); construct: made in house; host or cells: baculovirus (pBlueBac4 / Bac-N-Blue; virus made in Sf9), expressed in High-Five insect cells; culture supernatant used; test: Assay of MMP-13 inhibiting activity (fluorogenic peptide substrate); type: biochemical; conditions: Table 5; 37° C., 2 hours
pIC50: −log10 of the molar value.

compound: NC(=O)C1C(S)CC(=O)N1Cc1ccc(Oc2ccccc2)cc1 (stereo not drawn)
testedOn: recombinant human MMP-13 (Homo sapiens)
pIC50: 7.89
//
compound: CC(=O)S[C@@H]1CC(=O)N(Cc2ccc(Oc3ccccc3)cc2)[C@H]1CC(C)C (relative stereo)
testedOn: recombinant human MMP-13 (Homo sapiens)
pIC50: 8.05
//
compound: O=C1C[C@@H](S)[C@H](COCc2ccccc2)N1Cc1ccc(Oc2ccccc2)cc1 (relative stereo)
testedOn: recombinant human MMP-13 (Homo sapiens)
pIC50: 8.05
//
compound: CC(=O)SC1CC(=O)N(Cc2ccc(Oc3ccccc3)cc2)C1C(N)=O (stereo not drawn)
testedOn: recombinant human MMP-13 (Homo sapiens)
pIC50: 6.44
//
compound: CC(=O)S[C@@H]1CC(=O)N(Cc2ccc(Oc3ccccc3)cc2)[C@H]1COCc1ccccc1 (relative stereo)
testedOn: recombinant human MMP-13 (Homo sapiens)
pIC50: 8.30
//
compound: C[C@H]1[C@H](S)CC(=O)N1Cc1ccc(Oc2ccccc2)cc1
testedOn: recombinant human MMP-13 (Homo sapiens)
pIC50: 8.30
//
compound: C[C@H]1[C@@H](S)CC(=O)N1Cc1ccc(Oc2ccccc2)cc1
testedOn: recombinant human MMP-13 (Homo sapiens)
pIC50: 7.30
//
compound: O=C(NCCO)[C@H]1[C@H](S)CC(=O)N1Cc1ccc(Oc2ccccc2)cc1 (relative stereo)
testedOn: recombinant human MMP-13 (Homo sapiens)
pIC50: 7.60
//
compound: CC(=O)SC1CC(=O)N(Cc2ccc(Oc3ccccc3)cc2)C1CO (stereo not drawn)
testedOn: recombinant human MMP-13 (Homo sapiens)
pIC50: 8.00
//
compound: O=C(NCc1ccncc1)[C@H]1[C@H](S)CC(=O)N1Cc1ccc(Oc2ccccc2)cc1 (relative stereo)
testedOn: recombinant human MMP-13 (Homo sapiens)
pIC50: 7.72
//
compound: CC(=O)S[C@@H]1CC(=O)N(Cc2ccc(Oc3ccccc3)cc2)[C@H]1COC1CCCCO1 (relative stereo)
testedOn: recombinant human MMP-13 (Homo sapiens)
pIC50: 8.22
//
compound: CC(C)C[C@H]1[C@H](S)CC(=O)N1Cc1ccc(Oc2ccccc2)cc1 (relative stereo)
testedOn: recombinant human MMP-13 (Homo sapiens)
pIC50: 7.70
//
compound: CC(=O)S[C@@H]1CC(=O)N(Cc2ccc(Oc3ccccc3)cc2)[C@H]1C
testedOn: recombinant human MMP-13 (Homo sapiens)
pIC50: 8.70
//
compound: CC(=O)S[C@@H]1CC(=O)N(Cc2ccc(Oc3ccccc3)cc2)[C@H]1Cc1ccccc1 (relative stereo)
testedOn: recombinant human MMP-13 (Homo sapiens)
pIC50: 8.10
//
compound: O=C1C[C@@H](S)[C@H](Cc2ccccc2)N1Cc1ccc(Oc2ccccc2)cc1 (relative stereo)
testedOn: recombinant human MMP-13 (Homo sapiens)
pIC50: 7.70
